# protocol-details: Pharmacokinetic study of β-boswellic acid in rabbits with and without Piper longum extract (serum, HPLC-UV)
# Type: in vivo
# test-settings: male, rabbit, serum, po, Test I: 20 mg of BA + 2.5 mg of PL, read-out: Apparent volume of distribution (Vd/F)
measurement-kind: Vd/F (L)
Your answer should be a plain number; it is taken to be in L.

Asked: Output measured Vd/F for this item: C[C@H]1[C@H](C)CC[C@]2(C)CC[C@]3(C)C(=CC[C@@H]4[C@@]5(C)CC[C@@H](O)[C@](C)(C(=O)O)[C@@H]5CC[C@]43C)[C@H]12 [β-boswellic acid, 3α-hydroxyurs-12-en-24-oic acid]
Given back: 43.2

---

# protocol-details: Pharmacokinetic study of β-boswellic acid in rabbits with and without Piper longum extract (serum, HPLC-UV)
# Format: in vivo
# test-settings: male, rabbit, serum, po, Test II: 20 mg of BA + 10 mg of PL
measurement-kind: Tmax

Asked: Output measured Tmax for this item: C[C@H]1[C@H](C)CC[C@]2(C)CC[C@]3(C)C(=CC[C@@H]4[C@@]5(C)CC[C@@H](O)[C@](C)(C(=O)O)[C@@H]5CC[C@]43C)[C@H]12 [β-boswellic acid, 3α-hydroxyurs-12-en-24-oic acid]
Given back: 3 h

---

# protocol-details: Pharmacokinetic study of β-boswellic acid in rabbits with and without Piper longum extract (serum, HPLC-UV)
# Format: in vivo
# test-settings: male, rabbit, serum, po, 20 mg, oral, Control: 20 mg of BA alone
measurement-kind: Cmax (ng/mL)
Your answer should be a plain number; it is taken to be in ng/mL.

Asked: Output measured Cmax for this item: C[C@H]1[C@H](C)CC[C@]2(C)CC[C@]3(C)C(=CC[C@@H]4[C@@]5(C)CC[C@@H](O)[C@](C)(C(=O)O)[C@@H]5CC[C@]43C)[C@H]12 [β-boswellic acid, 3α-hydroxyurs-12-en-24-oic acid]
Given back: 260

---

# protocol-details: Pharmacokinetic study of β-boswellic acid in rabbits with and without Piper longum extract (serum, HPLC-UV)
# Assay type: in vivo
# test-settings: male, rabbit, serum, po, 20 mg, oral, Control: 20 mg of BA alone
measurement-kind: AUC(0-inf) (ng·h/mL)
Your answer should be a plain number; it is taken to be in ng·h/mL.

Asked: Output measured AUC(0-inf) for this item: C[C@H]1[C@H](C)CC[C@]2(C)CC[C@]3(C)C(=CC[C@@H]4[C@@]5(C)CC[C@@H](O)[C@](C)(C(=O)O)[C@@H]5CC[C@]43C)[C@H]12 [β-boswellic acid, 3α-hydroxyurs-12-en-24-oic acid]
Given back: 772

---

# protocol-details: Pharmacokinetic study of β-boswellic acid in rabbits with and without Piper longum extract (serum, HPLC-UV)
# Assay type: in vivo
# test-settings: male, rabbit, serum, po, Test II: 20 mg of BA + 10 mg of PL
measurement-kind: AUC(0-inf) (ng·h/mL)
Your answer should be a plain number; it is taken to be in ng·h/mL.

Asked: Output measured AUC(0-inf) for this item: C[C@H]1[C@H](C)CC[C@]2(C)CC[C@]3(C)C(=CC[C@@H]4[C@@]5(C)CC[C@@H](O)[C@](C)(C(=O)O)[C@@H]5CC[C@]43C)[C@H]12 [β-boswellic acid, 3α-hydroxyurs-12-en-24-oic acid]
Given back: 2850

---

# protocol-details: Pharmacokinetic study of β-boswellic acid in rabbits with and without Piper longum extract (serum, HPLC-UV)
# Format: in vivo
# test-settings: male, rabbit, serum, po, Test II: 20 mg of BA + 10 mg of PL, read-out: Ke (converted)
measurement-kind: k el
# include the unit after the value

Asked: Output measured k el for this item: C[C@H]1[C@H](C)CC[C@]2(C)CC[C@]3(C)C(=CC[C@@H]4[C@@]5(C)CC[C@@H](O)[C@](C)(C(=O)O)[C@@H]5CC[C@]43C)[C@H]12 [β-boswellic acid, 3α-hydroxyurs-12-en-24-oic acid]
Given back: 3.07e-05 s⁻¹

---

# protocol-details: Pharmacokinetic study of β-boswellic acid in rabbits with and without Piper longum extract (serum, HPLC-UV)
# Format: in vivo
# test-settings: male, rabbit, serum, po, Test I: 20 mg of BA + 2.5 mg of PL, read-out: Ke (converted)
measurement-kind: k el
# include the unit after the value

Asked: Output measured k el for this item: C[C@H]1[C@H](C)CC[C@]2(C)CC[C@]3(C)C(=CC[C@@H]4[C@@]5(C)CC[C@@H](O)[C@](C)(C(=O)O)[C@@H]5CC[C@]43C)[C@H]12 [β-boswellic acid, 3α-hydroxyurs-12-en-24-oic acid]
Given back: 5.24e-05 s⁻¹

---

# protocol-details: Pharmacokinetic study of β-boswellic acid in rabbits with and without Piper longum extract (serum, HPLC-UV)
# Format: in vivo
# test-settings: male, rabbit, serum, po, oral capsule, serum, Test I: 20 mg of BA + 2.5 mg of adjuvant (PL)
measurement-kind: AUC(0-t) (ng·h/mL)
Your answer should be a plain number; it is taken to be in ng·h/mL.

Asked: Output measured AUC(0-t) for this item: C[C@H]1[C@H](C)CC[C@]2(C)CC[C@]3(C)C(=CC[C@@H]4[C@@]5(C)CC[C@@H](O)[C@](C)(C(=O)O)[C@@H]5CC[C@]43C)[C@H]12 [β-boswellic acid, 3α-hydroxyurs-12-en-24-oic acid]
Given back: 1890

---

# protocol-details: Pharmacokinetic study of β-boswellic acid in rabbits with and without Piper longum extract (serum, HPLC-UV)
# Type: in vivo
# test-settings: male, rabbit, serum, po, Test II: 20 mg of BA + 10 mg of PL, read-out: Apparent volume of distribution (Vd/F)
measurement-kind: Vd/F

Asked: Output measured Vd/F for this item: C[C@H]1[C@H](C)CC[C@]2(C)CC[C@]3(C)C(=CC[C@@H]4[C@@]5(C)CC[C@@H](O)[C@](C)(C(=O)O)[C@@H]5CC[C@]43C)[C@H]12 [β-boswellic acid, 3α-hydroxyurs-12-en-24-oic acid]
Given back: 67.5 L

---

# protocol-details: Pharmacokinetic study of β-boswellic acid in rabbits with and without Piper longum extract (serum, HPLC-UV)
# Type: in vivo
# test-settings: male, rabbit, serum, po, Test I: 20 mg of BA + 2.5 mg of PL
measurement-kind: Tmax
# include the unit after the value

Asked: Output measured Tmax for this item: C[C@H]1[C@H](C)CC[C@]2(C)CC[C@]3(C)C(=CC[C@@H]4[C@@]5(C)CC[C@@H](O)[C@](C)(C(=O)O)[C@@H]5CC[C@]43C)[C@H]12 [β-boswellic acid, 3α-hydroxyurs-12-en-24-oic acid]
Given back: 2 h

---

# protocol-details: Pharmacokinetic study of β-boswellic acid in rabbits with and without Piper longum extract (serum, HPLC-UV)
# Format: in vivo
# test-settings: male, rabbit, serum, po, 20 mg, oral, Control: 20 mg of BA alone, read-out: Ke (converted)
measurement-kind: k el (s⁻¹)
Your answer should be a plain number; it is taken to be in s⁻¹.

Asked: Output measured k el for this item: C[C@H]1[C@H](C)CC[C@]2(C)CC[C@]3(C)C(=CC[C@@H]4[C@@]5(C)CC[C@@H](O)[C@](C)(C(=O)O)[C@@H]5CC[C@]43C)[C@H]12 [β-boswellic acid, 3α-hydroxyurs-12-en-24-oic acid]
Given back: 0.000131

---

# protocol-details: Pharmacokinetic study of β-boswellic acid in rabbits with and without Piper longum extract (serum, HPLC-UV)
# Format: in vivo
# test-settings: male, rabbit, serum, po, Test I: 20 mg of BA + 2.5 mg of PL
measurement-kind: Cmax (ng/mL)
Your answer should be a plain number; it is taken to be in ng/mL.

Asked: Output measured Cmax for this item: C[C@H]1[C@H](C)CC[C@]2(C)CC[C@]3(C)C(=CC[C@@H]4[C@@]5(C)CC[C@@H](O)[C@](C)(C(=O)O)[C@@H]5CC[C@]43C)[C@H]12 [β-boswellic acid, 3α-hydroxyurs-12-en-24-oic acid]
Given back: 321
